parameter: intrinsic clearance, rat liver microsomes (mL/min/kg)

The cases that follow already have their intrinsic clearance, rat liver microsomes on record.
Qu. State, in one line, measured intrinsic clearance, rat liver microsomes of O=C(C1CCCN(C(=O)N2CCCC2)C1)N1CCc2ccccc2C1 (stereo not drawn)
Ans. 1010

Qu. State, in one line, measured intrinsic clearance, rat liver microsomes of Nc1ncnc2c1c(-c1ccc(Oc3ccccc3)cc1)nn2[C@@H]1CCCNC1
Ans. 103

Qu. State, in one line, measured intrinsic clearance, rat liver microsomes of Cc1ccnc(N2CCC(OCC3CCCC3)CC2)n1
Ans. 5910

Qu. State, in one line, measured intrinsic clearance, rat liver microsomes of Cc1cc(-c2nc(N(C)C)no2)cc(O)n1
Ans. 31.7

Qu. State, in one line, measured intrinsic clearance, rat liver microsomes of Cc1cc(C)n(-c2ccc(C(=O)NCc3cccnc3)cc2)n1
Ans. 94.4

A. Cc1cccn(Cc2cccc(F)c2)c1=O
B. Clc1cnc(NCC2(c3ccncc3)CC2)nc1
Qu. Parameter check: reported intrinsic clearance, rat liver microsomes is higher for which label, A or B ? Use the label to indicate which entry you chose.
Ans. B

I. Cc1ccc2nc(C)c(C(=O)NOCc3ccccc3)cc2c1
II. C#CCOc1ccc(OC)cc1C(N)=O
Qu. Parameter check: reported intrinsic clearance, rat liver microsomes is higher for which label, I or II ? Use the label to indicate which entry you chose.
Ans. I

a. CCCCC1=NC2(CCCC2)C(=O)N1Cc1ccc(-c2ccccc2-c2nnn[nH]2)cc1
b. Cc1cnc(Nc2ccc(OCCN3CCCC3)cc2)nc1Nc1cccc(S(=O)(=O)NC(C)(C)C)c1
Qu. Please choose the item with the lower intrinsic clearance, rat liver microsomes value from this pair: a and b Use the label to indicate which entry you chose.
Ans. a

1. COc1cc(C=C2C(=O)NN(c3ccccc3)C2=O)ccc1OCC(N)=O
2. COCCOCc1ccc(-c2cc3onc(-c4ccccc4)c3c(=O)n2C)cc1
Qu. Parameter check: reported intrinsic clearance, rat liver microsomes is higher for which label, 1 or 2 ? Use the label to indicate which entry you chose.
Ans. 1
